System: M14 | Read-out: CC50
Don't forget the unit after the number, please.

// for each molecule below, give its CC50
1. C=C1C(=O)O[C@H]2[C@H]1CC/C(COC(=O)N1CCN(C)CC1)=C\CC[C@@]1(C)O[C@@H]21
2. C=C1C(=O)O[C@H]2[C@H]1CC/C(COC(=O)NCCO)=C\CC[C@@]1(C)O[C@@H]21

Response given:
1. 69.9 µM
2. 88.3 µM

Would you mind giving CC50 for every molecule in the list below?
1. C=C1C(=O)O[C@H]2[C@H]1CC/C(COC(=O)NCCN1CCCCC1)=C\CC[C@@]1(C)O[C@@H]21
2. C=C1C(=O)O[C@H]2[C@H]1CC/C(COC(=O)CCC(=O)N1CCC(C)CC1)=C\CC[C@@]1(C)O[C@@H]21
3. C=C1C(=O)O[C@H]2[C@H]1CC/C(COC(=O)NC)=C\CC[C@@]1(C)O[C@@H]21
4. C=C1C(=O)O[C@H]2[C@H]1CC/C(COC(=O)N1CCC(F)(F)CC1)=C\CC[C@@]1(C)O[C@@H]21

Response given:
["55.1 µM", "49.3 µM", "66.7 µM", "41.7 µM"]

----------
For each record, write down the corresponding CC50.
System: A549/ATCC
Answers are plain numbers, in µM.

{"compound": "C=C1C(=O)O[C@H]2[C@H]1CC/C(COC(=O)N1CCC(F)(F)CC1)=C\\CC[C@@]1(C)O[C@@H]21 [JVM 2-66]", "unitName": "µM", "CC50": 66.2}
{"compound": "C=C1C(=O)O[C@H]2[C@H]1CC/C(COC(=O)NC)=C\\CC[C@@]1(C)O[C@@H]21 [JVM 2-57]", "unitName": "µM", "CC50": 57.7}
{"compound": "C=C1C(=O)O[C@H]2[C@H]1CC/C(COC(=O)CCC(=O)N1CCC(C)CC1)=C\\CC[C@@]1(C)O[C@@H]21 [JVM 2-70]", "unitName": "µM", "CC50": 75.9}

CC50 on A549/ATCC for C=C1C(=O)O[C@H]2[C@H]1CC/C(COC(=O)NCCN1CCCCC1)=C\CC[C@@]1(C)O[C@@H]21 [JVM 2-13] is 98.5

----------
Task for the reader: assign each of the following molecules its reported Percent Growth.
Tested on: NCI-H226
Experiment: panel of 60 human tumor cell lines, growth inhibition (Non-Small Cell Lung Cancer)
Conditions: NCI-H226; Log10 Concentration −4.0
Give bare numbers, in %.

Dear colleague, could you please provide Percent Growth for the molecules listed below?
1. C=C1C(=O)O[C@H]2[C@H]1CC/C(COC(=O)NCCO)=C\CC[C@@]1(C)O[C@@H]21
2. C=C1C(=O)O[C@H]2[C@H]1CC/C(COC(=O)CCC(=O)NCc1ccc(Cl)nc1)=C\CC[C@@]1(C)O[C@@H]21
3. C=C1C(=O)O[C@H]2[C@H]1CC/C(COC(=O)N1CCC(F)(F)CC1)=C\CC[C@@]1(C)O[C@@H]21
4. C=C1C(=O)O[C@H]2[C@H]1CC/C(COC(=O)CCC(=O)N1CCC(C)CC1)=C\CC[C@@]1(C)O[C@@H]21

Response given:
1: −37; 2: −61; 3: −71; 4: −59

----------
Tested on: MOLT-4
Experiment: panel of 60 human tumor cell lines, growth inhibition (Leukemia)
Conditions: Homo sapiens, MOLT-4
The label is Fulfilled for GI50 below 6 µM and Not fulfilled for GI50 equal to or exceeding 6 µM.

Use these answered entries as a reference point.
{"structure": "C=C1C(=O)O[C@H]2[C@H]1CC/C(COC(=O)NCCc1ccccn1)=C\\CC[C@@]1(C)O[C@@H]21", "assignedLabel": "Fulfilled"}
{"structure": "C=C1C(=O)O[C@H]2[C@H]1CC/C(COC(=O)OCCN(C)C)=C\\CC[C@@]1(C)O[C@@H]21", "assignedLabel": "Fulfilled"}
{"structure": "C=C1C(=O)O[C@H]2[C@H]1CC/C(COC(=O)CCC(=O)NCc1ccc(Cl)nc1)=C\\CC[C@@]1(C)O[C@@H]21", "assignedLabel": "Not fulfilled"}

Challenge: Strictly below 6 µM: is that where GI50 of `C=C1C(=O)O[C@H]2[C@H]1CC/C(COC(=O)NCCN1CCOCC1)=C\CC[C@@]1(C)O[C@@H]21` sits?
Response given: Fulfilled

Challenge: Take the compound `C=C1C(=O)O[C@H]2[C@H]1CC/C(COC(=O)Nc1n[nH]c(SC)n1)=C\CC[C@@]1(C)O[C@@H]21` and say whether its GI50 is less than 6 µM.
Response given: Fulfilled

----------
System: IGROV1
Assay: panel of 60 human tumor cell lines, growth inhibition (Ovarian Cancer)
Settings: Homo sapiens, IGROV-1, read-out: LC50
For each record, write down the corresponding CC50.

Solved cases below.
{"compound": "C=C1C(=O)O[C@H]2[C@H]1CC/C(COC(=S)n1ccnc1)=C\\CC[C@@]1(C)O[C@@H]21 [JVM 66]", "CC50": "> 100 µM"}
{"compound": "C=C1C(=O)O[C@H]2[C@H]1CC/C(COC(=O)NCCN1CCCC1)=C\\CC[C@@]1(C)O[C@@H]21 [JVM 59]", "CC50": "68.5 µM"}
{"compound": "C=C1C(=O)O[C@H]2[C@H]1CC/C(COC(=O)NCCN1CCOCC1)=C\\CC[C@@]1(C)O[C@@H]21 [JVM 57]", "CC50": "58.6 µM"}

Next compound, please.
Field CC50 (entry C=C1C(=O)O[C@H]2[C@H]1CC/C(COC(=O)CCC(=O)NCc1ccc(Cl)nc1)=C\CC[C@@]1(C)O[C@@H]21 [JVM 96] ) reads 95.5 µM

----------
Entries with their measured CC50, system A498:

# count of solved cases: 3
{"compound": "C=C1C(=O)O[C@H]2[C@H]1CC/C(COC(=O)N1CCC(F)(F)CC1)=C\\CC[C@@]1(C)O[C@@H]21 [JVM 2-66]", "experimentalTarget": "A498", "CC50": "28.9 µM"}
{"compound": "C=C1C(=O)O[C@H]2[C@H]1CC/C(COC(=O)CCC(=O)N1CCC(C)CC1)=C\\CC[C@@]1(C)O[C@@H]21 [JVM 2-70]", "experimentalTarget": "A498", "CC50": "45.2 µM"}
{"compound": "C=C1C(=O)O[C@H]2[C@H]1CC/C(COC(=O)N1CCN(C)CC1)=C\\CC[C@@]1(C)O[C@@H]21 [JVM 2-44]", "experimentalTarget": "A498", "CC50": "> 100 µM"}

For every item below, please supply its CC50.
1. C=C1C(=O)O[C@H]2[C@H]1CC/C(COC(=O)NCCO)=C\CC[C@@]1(C)O[C@@H]21 [JVM 2-50]
2. C=C1C(=O)O[C@H]2[C@H]1CC/C(COC(=O)NCCN1CCCCC1)=C\CC[C@@]1(C)O[C@@H]21 [JVM 2-13]

Response given:
["> 100 µM", "53.1 µM"]

Note to self: CC50 recorded for C=C1C(=O)O[C@H]2[C@H]1CC/C(COC(=O)NC)=C\CC[C@@]1(C)O[C@@H]21 [JVM 2-57] was 47.4 µM

----------
System: LOX IMVI
Assay: panel of 60 human tumor cell lines, growth inhibition (Melanoma)
Conditions: Log10 Concentration −4.0
measuredMetric: Percent Growth (%)
One number for each entry, in %.

These solved cases illustrate the format of a correct answer.
{"structure": "C=C1C(=O)O[C@H]2[C@H]1CC/C(COC(=O)CCC(=O)NCc1ccc(Cl)nc1)=C\\CC[C@@]1(C)O[C@@H]21", "unitName": "%", "Percent Growth": "−86"}
{"structure": "C=C1C(=O)O[C@H]2[C@H]1CC/C(COC(=O)CCC(=O)N1CCC(C)CC1)=C\\CC[C@@]1(C)O[C@@H]21", "unitName": "%", "Percent Growth": "−84"}
{"structure": "C=C1C(=O)O[C@H]2[C@H]1CC/C(COC(=O)NCCO)=C\\CC[C@@]1(C)O[C@@H]21", "unitName": "%", "Percent Growth": "−88"}

Okay, now this compound:
For this compound ( `C=C1C(=O)O[C@H]2[C@H]1CC/C(COC(=O)NCCc1ccccn1)=C\CC[C@@]1(C)O[C@@H]21` ), measured Percent Growth is −75

----------
Tested on: SNB-75
Experiment: panel of 60 human tumor cell lines, growth inhibition (CNS Cancer)
Settings: SNB-75; Log10 Concentration −4.0
measuredMetric: Percent Growth

Below are worked cases with known answers.
{"structure": "C=C1C(=O)O[C@H]2[C@H]1CC/C(COC(=O)CCC(=O)N1CCC(C)CC1)=C\\CC[C@@]1(C)O[C@@H]21", "experimentalTarget": "SNB-75", "measuredMetric": "Percent Growth", "result": "−85%"}
{"structure": "C=C1C(=O)O[C@H]2[C@H]1CC/C(COC(=O)NCCc1ccccn1)=C\\CC[C@@]1(C)O[C@@H]21", "experimentalTarget": "SNB-75", "measuredMetric": "Percent Growth", "result": "−88%"}

Parameter requested: Percent Growth. Apply to each item below.
1. C=C1C(=O)O[C@H]2[C@H]1CC/C(COC(=O)NC)=C\CC[C@@]1(C)O[C@@H]21
2. C=C1C(=O)O[C@H]2[C@H]1CC/C(COC(=O)NCCO)=C\CC[C@@]1(C)O[C@@H]21

Response given:
−41%
−20%
